# Test system: Enterococcus sp.
# Experimental Details: In vitro antibacterial evaluation: minimum inhibitory concentration (MIC), broth dilution method
# Format: cell-based
# Details: strain GC 4558
The entries below are paired with their reported MIC Enterococcus avium (GC 4558).
# number only, unit µg/mL dropped from output

Solved cases below.
Cc1ccc(Oc2ccc(C3OCC4OC(OC5C(CO)OC(Oc6ccc(CC7NC(=O)C(C(C)c8ccccc8)NC(=O)CNC(=O)C(CO)NC(=O)C(C(O)C8CNC(=N)N8C8OC(CO)C(O)C(O)C8O)NC(=O)C(C(O)C8CNC(=N)N8)NC7=O)cc6)C(O)C5O)C(O)C(O)C4O3)cc2)cc1 (stereo not drawn) = 2
CC(c1ccccc1)C1NC(=O)CNC(=O)C(CO)NC(=O)C(C(O)C2CNC(=N)N2C2OC(CO)C(O)C(O)C2O)NC(=O)C(C(O)C2CNC(=N)N2)NC(=O)C(Cc2ccc(OC3OC(CO)C(OC4OC5COC(c6ccc(C=Cc7ccccc7)cc6)OC5C(O)C4O)C(O)C3O)cc2)NC1=O (stereo not drawn) = 4

API: the following record is the query input.
INPUT: Report MIC Enterococcus avium (GC 4558) for CCOc1cc(C2OCC3OC(OC4C(CO)OC(Oc5ccc(CC6NC(=O)C(C(C)c7ccccc7)NC(=O)CNC(=O)C(CO)NC(=O)C(C(O)C7CNC(=N)N7C7OC(CO)C(O)C(O)C7O)NC(=O)C(C(O)C7CNC(=N)N7)NC6=O)cc5)C(O)C4O)C(O)C(O)C3O2)ccc1[N+](=O)[O-] (stereo not drawn) please.
OUTPUT: 32

###

# Tested on: Staphylococcus sp.
# Experimental Details: In vitro antibacterial evaluation: minimum inhibitory concentration (MIC), broth dilution method
# Format: cell-based
# Details: broth dilution, 5×10^5 CFU/mL, 18 hours at 35° C.
Assay Endpoint: MIC Staphylococcus aureus (ATCC 29213) (µg/mL)
Your answer should be a plain number; it is taken to be in µg/mL.

// known answers, use as guide
COc1cccc(C2OC3C(OC4C(CO)OC(Oc5ccc(CC6NC(=O)C(C(C)c7ccccc7)NC(=O)CNC(=O)C(CO)NC(=O)C(C(O)C7CNC(=N)N7C7OC(CO)C(O)C(O)C7O)NC(=O)C(C(O)C7CNC(=N)N7)NC6=O)cc5)C(O)C4O)OC(CO)C(O)C3O2)c1 (single isomer, unassigned) [Example 137a] = 32
CC(C)=CCCC(C)=CCOc1ccc(C2OCC3OC(OC4C(CO)OC(Oc5ccc(CC6NC(=O)C(C(C)c7ccccc7)NC(=O)CNC(=O)C(CO)NC(=O)C(C(O)C7CNC(=N)N7C7OC(CO)C(O)C(O)C7O)NC(=O)C(C(O)C7CNC(=N)N7)NC6=O)cc5)C(O)C4O)C(O)C(O)C3O2)cc1 (stereo not drawn) = 4

# input for lookup
INPUT: Which MIC Staphylococcus aureus (ATCC 29213) value is on record for COc1ccc(Oc2cccc(C3OCC4OC(OC5C(CO)OC(Oc6ccc(CC7NC(=O)C(C(C)c8ccccc8)NC(=O)CNC(=O)C(CO)NC(=O)C(C(O)C8CNC(=N)N8C8OC(CO)C(O)C(O)C8O)NC(=O)C(C(O)C8CNC(=N)N8)NC7=O)cc6)C(O)C5O)C(O)C(O)C4O3)c2)cc1 (stereo not drawn) ?
OUTPUT: 2

###

# Tested on: Staphylococcus sp.
# Experimental Details: In vitro antibacterial evaluation: minimum inhibitory concentration (MIC), broth dilution method
# Assay type: cell-based
# Details: strain GC 3053
# Text: […]
Assay Endpoint: MIC Staphylococcus aureus (GC 3053) (µg/mL)
Answer format: numeric, µg/mL implied, no suffix.

Examples with answers:
CC(c1ccccc1)C1NC(=O)CNC(=O)C(CO)NC(=O)C(C(O)C2CNC(=N)N2C2OC(CO)C(O)C(O)C2O)NC(=O)C(C(O)C2CNC(=N)N2)NC(=O)C(Cc2ccc(OC3OC(CO)C(OC4OC5COC(c6cccc(Oc7cccc(C(F)(F)F)c7)c6)OC5C(O)C4O)C(O)C3O)cc2)NC1=O (centres unmarked) = 32
CC(c1ccccc1)C1NC(=O)CNC(=O)C(CO)NC(=O)C(C(O)C2CNC(=N)N2C2OC(CO)C(O)C(O)C2O)NC(=O)C(C(O)C2CNC(=N)N2)NC(=O)C(Cc2ccc(OC3OC(CO)C(OC4OC(CO)C(O)C5OC(c6ccccc6)OC45)C(O)C3O)cc2)NC1=O (single isomer, unassigned) [Example 104a] = 0.5

INPUT: Consider the compound shown here: CCCCN1CC(C(O)C2NC(=O)C(C(O)C3CNC(=N)N3)NC(=O)C(Cc3ccc(OC4OC(CO)C(OC5OC6COC7(OC6C(O)C5O)C5CC6CC(C5)CC7C6)C(O)C4O)cc3)NC(=O)C(C(C)c3ccccc3)NC(=O)CNC(=O)C(CO)NC2=O)N(C2OC(CO)C(O)C(O)C2O)C1=N (centres unmarked) What is its recorded MIC Staphylococcus aureus (GC 3053)?
OUTPUT: 4

INPUT: Consider the compound CC(C)=CCN1CC(C(O)C2NC(=O)C(C(O)C3CNC(=N)N3)NC(=O)C(Cc3ccc(OC4OC(CO)C(OC5OC6COC7(OC6C(O)C5O)C5CC6CC(C5)CC7C6)C(O)C4O)cc3)NC(=O)C(C(C)c3ccccc3)NC(=O)CNC(=O)C(CO)NC2=O)N(C2OC(CO)C(O)C(O)C2O)C1=N (centres unmarked) and give its measured MIC Staphylococcus aureus (GC 3053).
OUTPUT: 8

Data credit: patent US8247211B2
